Provide the reported kon of each item.
target entity: T1, recombinant alipidated human ApoE4 (human, UniProt P02649 19-317)
T1 construct: mature; full length recombinant protein made in E. coli or bought; biotinylated for SPR; position 112 is counted on the mature protein, not on the precursor entry; also called recApoE; non-lipidated ApoE4
T1 sequence (P02649 19-317 C130R): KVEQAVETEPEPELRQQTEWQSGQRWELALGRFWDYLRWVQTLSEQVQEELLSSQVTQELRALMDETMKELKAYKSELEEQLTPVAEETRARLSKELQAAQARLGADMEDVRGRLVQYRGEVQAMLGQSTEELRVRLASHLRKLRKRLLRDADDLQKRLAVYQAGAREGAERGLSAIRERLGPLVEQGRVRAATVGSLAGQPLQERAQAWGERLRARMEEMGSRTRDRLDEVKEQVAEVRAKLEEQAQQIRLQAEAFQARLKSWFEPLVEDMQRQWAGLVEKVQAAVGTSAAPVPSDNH
test: SPR (Biacore T200), biotinylated ApoE4 captured on anti-biotin mAb chip, antibody injected, 1:1 fit
Procedure: The affinity of several anti-ApoE antibodies for ApoE4 was determined by surface plasmon resonance using a BIAcore T200. Anti-biotin monoclonal mouse antibody was immobilized on a Biacore Series S CM5 sensor chip. Biotinylated recombinant alipidated ApoE4 was then captured on to the chip. Serial dilutions of each antibody were injected at a flow rate of 30 μl/min. Each sample was analyzed, for example, with 3-minute association and 10-minute dissociation. […]
Answers are plain numbers, in M⁻¹ s⁻¹.

These recorded examples may help you get a feel for the data.
binder	recorded measurement
HJ1513 (antibody, V domains shown, murine monoclonal antibody from hybridoma) VH: QIQLQQSGPELVKPGASVKISCKASGYTFTDYYINWVRQRPGQGLEWIGWIYPESFNTYYNEKFKGKATLTVDTSSNTAYMQLSSLTSEDSAVYFCARYYVSSPFAYWGQGTLVTVSA VL: DVLMTQTPLSLPVSLGDQASISCRSSQNIIHSNGNTYLEWFLQKPGQSPKLLIYKVSNRFSGVPDRFSGSGSGTDFTLKISRVEAEDLGVYYCFQGSHVPYTFGGGTKLEIKR	6360
HJ159 (antibody, V domains shown, murine monoclonal antibody from hybridoma) VH: QVQLQQSGPDLVKPGASVKISCKASGYTFIDYYINWAKQRPGQGLEWIGWIFPGSGSTYYNEKFKGKATLTVDKSSSTAYMFLSSLTSEDSAVFFCARYYGSSPFAYWGQGTLVTVSA VL: DVLMTQTPLSLPVSLGDQASISCRSSQNIVYSNGNTYLEWYLQKPGQSPKLLIYKVSNRFSGVPDRFSGSGSGTYFTLKISRVEAEDLGIYYCFQGSHVPYTFGGGTKLEIKR	18900
HJ153 (antibody, V domains shown, murine monoclonal antibody from hybridoma; also called HJ153B (biotinylated)) VH: QVQLQQPGAELVKPGASVKLSCKASGYTFTSYWMHWVKQRPGRGLEWIGEIDPSDGFTYNNQNFKDKSTLTVDRSSGTAYLQLSSLTSEDSAVYYCAGSLGRIGLAYWGHGTLVTVSA VL: QIVLTQSPAIMSASPGEKVTISCSASSSVTYMYWYQQKPGASPKSWIYRTSNLASGVPARFSGSGSGTSYSLTISSMEAEDAATYYCQQFQSYPLTFGAGTKLELKR	804000
HJ156 (antibody, V domains shown, murine monoclonal antibody from hybridoma; also called HJ156B (biotinylated)) VH: QVQLQQSGPELVKPGASVKISCKASGYIFTDYYINWVKRRPGQGLEWIGWIFPGSGVSYYNEQFKGKATLTVDKPSNTAYIFLSRLTSEDSAVYFCARYYSSSPFAYWGQGTLVTVSA VL: DVLMTQTPLSLPVSLGDQASISCRSSQNIIHSNGNTYLEWFLQRPGQSPELLIYKVSNRFSGVPDRFSGSGSGTDFTLKISRVEAEDLGVYYCFQGSHVPYTFGGGTKLEIKR	20700

State the recorded kon for every item in the following list.
1. HJ1514 (antibody, V domains shown, murine monoclonal antibody from hybridoma) VH: EVNLEESGGGLVQPGGSMKLSCAASGFTFSDAWMDWVRQSPEKGLEWVAEIRNKADNHATYYAESVKGRFTISRNDSKSSVYLQMNSLRTEDTGIYYCVLWDYWGQGTTLTVSS VL: DIVMSQSPSSLAVSAGEKVTMTCKSSQSLLNSRTRKNFLTWYRQKPGQSPKPLIYWASSRESGVPDRFAGSGSGTDFTLTISSVQAEDLAVYYCKQSYNLPWTFGGGTKLEIKR
2. HJ1526 (antibody, V domains shown, murine monoclonal antibody from hybridoma) VH: QVQLQQPGTALVKPGASVKLSCKSSGYTFTDYWVHWVKQRPGQGLEWIGNINPRNGGINYNENFKGKAILTVDRSFSIAYMQLNSLTSEDSAVYYCARPGATVVHRTPWFAHWGQGTLVTVSA VL: EIVLTQSPALMAASPGEKVTITCSVSSSISSSNLHWFQQKSETSPKPWIFGTSYLASGVPVRFSGSGSGTSYSLTISSMEAEDAATYYCQQWNSYPLTFGAGTKLELR

stdout:
1. 12800
2. 7880

kon reading for HJ152 (antibody, V domains shown, murine monoclonal antibody from hybridoma; also called HJ152B (biotinylated)) VH: EVKLEESGGGLVQPGGSMKLSCAASGFSFSDAWMDWVRQSPEKGLEWVAEIRNKADNHATFYAESVKGRFTISRDDSKSSVYLQMNSLRAEDSGIYYCLLWDYWGQGTTLTVSS VL: DIVMSQSPSSLAVSAGEKVTMSCKSSQSLLNSRTRKHFLAWYQQKPGQSPKVLIYWASSRESGVPDRFTGSGSGTDFTLTISSVQAEDLAVYYCKQSCNLPWTFGGGTKLEIKR : 4660

All figures here come from patent US20250145697A1.
